Target: Isoleucine--tRNA ligase (Staphylococcus aureus, UniProt P41972)
Sequence (P41972 whole entry): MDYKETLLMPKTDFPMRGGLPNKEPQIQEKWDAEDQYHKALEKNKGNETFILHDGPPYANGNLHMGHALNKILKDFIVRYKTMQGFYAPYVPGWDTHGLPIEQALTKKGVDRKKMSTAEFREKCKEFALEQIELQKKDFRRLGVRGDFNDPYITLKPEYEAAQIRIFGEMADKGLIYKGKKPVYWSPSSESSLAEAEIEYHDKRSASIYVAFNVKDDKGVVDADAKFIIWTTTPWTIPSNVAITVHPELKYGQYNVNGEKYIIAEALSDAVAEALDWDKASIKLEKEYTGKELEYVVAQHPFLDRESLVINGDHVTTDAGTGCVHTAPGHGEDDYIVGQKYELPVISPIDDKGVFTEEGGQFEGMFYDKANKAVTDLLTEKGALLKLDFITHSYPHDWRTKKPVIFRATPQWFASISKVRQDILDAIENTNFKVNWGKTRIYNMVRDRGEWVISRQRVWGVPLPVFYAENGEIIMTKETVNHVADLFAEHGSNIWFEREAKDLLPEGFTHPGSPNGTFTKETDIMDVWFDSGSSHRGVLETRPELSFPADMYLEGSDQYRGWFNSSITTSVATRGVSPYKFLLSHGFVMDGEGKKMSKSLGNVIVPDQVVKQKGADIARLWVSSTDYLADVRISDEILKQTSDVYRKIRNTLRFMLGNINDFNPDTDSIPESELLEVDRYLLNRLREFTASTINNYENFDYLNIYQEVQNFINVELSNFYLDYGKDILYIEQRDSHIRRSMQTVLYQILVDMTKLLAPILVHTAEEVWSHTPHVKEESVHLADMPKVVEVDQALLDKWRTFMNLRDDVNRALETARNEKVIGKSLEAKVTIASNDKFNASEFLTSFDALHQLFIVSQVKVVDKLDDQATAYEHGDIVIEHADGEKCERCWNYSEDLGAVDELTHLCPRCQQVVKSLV
Assay: Inhibitory activity against isoleucyl-tRNA synthetase (IRS) of Staphylococcus aureus C 7
readout type: IC50 (µM)
Your answer should be a plain number; it is taken to be in µM.

## Input Could you tell me which IC50 is on file for C/C(=C\C(=O)OCCCCCCCCC(=O)O)C[C@@H]1OC[C@H](C[C@@H]2O[C@H]2[C@@H](C)[C@H](C)O)[C@@H](O)[C@H]1O [MUPIROCIN] ?
## Output 39.9

----------
System: Mus musculus
Assay: Pharmacokinetic parameter Cmax was determined in blood level in mouse after subcutaneous administration.
Format: ADME, organism-based
Design: route subcutaneous
Conditions: in vivo, sc
readout type: Cmax (ng/mL)
Your answer should be a plain number; it is taken to be in ng/mL.

## Input Could you tell me which Cmax is on file for C/C(=C\c1ncc(-c2ccc([N+](=O)[O-])o2)o1)C[C@@H]1OC[C@H](C[C@@H]2O[C@H]2[C@@H](C)[C@H](C)O)[C@@H](O)[C@H]1O ?
## Output 30500

----------
Tested on: Staphylococcus aureus
Experiment: compound was tested for antibacterial activity against Staphylococcus aureus C 37.
Format: functional
MIC overview
Your answer should be a plain number; it is taken to be in µg/mL.

Illustrative cases are given below, each with its answer.
C/C(=C\c1ncc(-c2csc([N+](=O)[O-])c2)o1)C[C@@H]1OC[C@H](C[C@@H]2O[C@H]2[C@@H](C)[C@H](C)O)[C@@H](O)[C@H]1O ... 32
C/C(=C\c1ncc(-c2cc([N+](=O)[O-])cs2)o1)C[C@@H]1OC[C@H](C[C@@H]2O[C@H]2[C@@H](C)[C@H](C)O)[C@@H](O)[C@H]1O ... 32
C/C(=C\c1ncc(-c2ccc([N+](=O)[O-])s2)o1)C[C@@H]1OC[C@H](C[C@@H]2O[C@H]2[C@@H](C)[C@H](C)O)[C@@H](O)[C@H]1O ... 8

## Input Could you tell me which MIC is on file for C/C(=C\c1ncc(-c2ccc([N+](=O)[O-])o2)o1)C[C@@H]1OC[C@H](C[C@@H]2O[C@H]2[C@@H](C)[C@H](C)O)[C@@H](O)[C@H]1O ?
## Output 4

----------
Assay: Pharmacokinetic parameter Tmax was determined in blood level in mouse after oral administration.
Type: ADME, organism-based
readout type: Tmax (min)
Your answer should be a plain number; it is taken to be in min.

## Input Could you tell me which Tmax is on file for C/C(=C\c1ncc(-c2ccc([N+](=O)[O-])o2)o1)C[C@@H]1OC[C@H](C[C@@H]2O[C@H]2[C@@H](C)[C@H](C)O)[C@@H](O)[C@H]1O ?
## Output 15

----------
Target: Isoleucine--tRNA ligase (Staphylococcus aureus)
Assay: Inhibitory activity against isoleucyl-tRNA synthetase (IRS) of Staphylococcus aureus NCTC 6571
readout type: IC50 (nM)
Your answer should be a plain number; it is taken to be in nM.

## Input Notebook: pull reported IC50 for Isoleucine--tRNA ligase (Staphylococcus aureus), entry C/C(=C\c1ncc(-c2ccc([N+](=O)[O-])s2)o1)C[C@@H]1OC[C@H](C[C@@H]2O[C@H]2[C@@H](C)[C@H](C)O)[C@@H](O)[C@H]1O
## Output 6.67
